test.protocol: yeast display, Sf9 membrane polyspecificity reagent, FACS + sequencing; frameworks hold sequencing errors
quantity.measured: polyreactivity (PSR sort gate)

monomer.sequence	result
QVQLVESGGGLVQAGGSLHLSCAASGFTFGRYAMGWFRQAPGKERELVAAISRRGGSTYYADSVKGRFTISRDNANNTVYLQMNSLKPEDTAVYYCNVDKYRIVGFHSPYDYWVQGTQVTVSS	high polyreactivity
QVQLVESGGGLVQAGGSLRLSCAASGSTFKTYAMGWYRQAPGKEREFVAAINWRGTSTYYADSVKGRFTISRDNAKNTVYLQMNSLKPEDTAVYYCAAQRYGYGYQWYDHWGQGTQVTVSS	high polyreactivity
QVQLVESGGGLVQAGGSLRLSCAASGSTFEIYAMGWYRQAPGKERELVAAITRSGRTNYADSVKGRFTISRDNAKNTVYLQMNSLKPEDTAVYYCAAGVWGRDRKYGYWGQGTQVTVSS	high polyreactivity
QVQLVESGGGLVQAGGSLRLSCAASGRIFYRYAMGWYRQAPGKEMELVASITRSGITHYADSVKGRFTISRDNAKNTVYLQKNSLKPEDTEVYYCNARRGSPAPYDYWGQGTQVTVSS	high polyreactivity
